Test system: Plasmodium falciparum
procedure-summary: GSK_TCMDC: Inhibition of Plasmodium falciparum Dd2 in whole red blood cells, using parasite LDH activity as an index of growth. Test compounds present at 2uM
Format: functional
property-name: Inhibition (%)
Give the value in % but do not write % after it.

Task item: Sample N#Cc1ccc(CN2CCC(Oc3ccc(NC(=O)c4ccsc4)cc3Cl)C2)cc1.O=C(O)C(F)(F)F (configuration not stated) — what was its Inhibition?
Reply: 79

Task item: Given O=C(CNc1ccc(Cl)c(S(=O)(=O)N2CCCC2)c1)Nc1ccc(Br)cc1F , state its recorded Inhibition.
Reply: 97

Task item: What measured Inhibition goes with CC(C)CNCc1ccc(-c2cccc(CN(CCCN3CCN(C)CC3)C(=O)/C=C/c3ccccc3)c2)cc1.O=C(O)C(F)(F)F ?
Reply: 93

Task item: # lookup: Inhibition of CC(C)(C)NCCN(Cc1ccc(-c2ccc(C(F)(F)F)cc2)cc1)C(=O)Cn1c(CCc2cccc(F)c2F)nc(=O)c2ccccc21
Reply: 68

Task item: Form field: reported Inhibition of O=C(Nc1cccc(C(F)(F)F)c1)Nc1ccc(F)c([N+](=O)[O-])c1
Reply: 100

Task item: What measured Inhibition goes with CC(C)c1nc2c(N)nc(N)nc2nc1N ?
Reply: 0

Task item: # get_value(readout='Inhibition', item= CN1CCCc2ccc(NC(=O)Nc3ccc(-c4ccccc4)cc3)cc2C1 )
Reply: 47

Task item: May I ask what Inhibition has been recorded for COc1ccc2ncc(F)c([C@@H](O)CN3CCC(NCc4ccc5c(c4)NCCS5)CC3)c2n1.Cl ?
Reply: 69

Task item: Requested field: Inhibition. Item: COCCN(C)c1ccc(C(=O)Nc2ccccc2)cc1NS(=O)(=O)Cc1ccccc1.O=C(O)C(F)(F)F
Reply: 47

Task item: Look up Inhibition: Cc1ccc(F)cc1S(=O)(=O)N1CCCCC(c2ccc(C(F)(F)F)cc2)=N1
Reply: 75

Task item: Need Inhibition, item O=C(/C=C/c1ccc(Cl)c(Cl)c1)NCCCCN1CCCN(C(=O)Nc2ccc(Cl)c(Cl)c2)CC1
Reply: 1

Task item: Fill in the blank: the reported Inhibition of CN(C)CCN(C)Cc1ccc(-c2ccc3c(Nc4ccc(Cl)cc4F)ccnc3c2)o1 is ____.
Reply: 76

* * *

Please go through the items and note down their Inhibition.
System: Plasmodium falciparum
procedure-summary: GSK_TCMDC: Inhibition of Plasmodium falciparum 3D7 in whole red blood cells, using parasite LDH activity as an index of growth. Test compounds present at 2uM
Type: functional
Numbers only; they are read as %.

Task item: Find Inhibition (Plasmodium falciparum) for the entry Br.CC1(C)NC(N)=NC(=N)N1OCCc1ccc(N)cc1
Reply: 93

Task item: Item Cc1cccc2nc(-c3cccc(-c4cccc(NC(=O)c5csnn5)c4)c3)[nH]c12 with Plasmodium falciparum - Inhibition?
Reply: 98

Task item: Recorded Inhibition for Oc1ccc(Cl)cc1CN1CCC2(CCCN(CC3CCC3)C2)C1 (stereo not drawn) with Plasmodium falciparum, please?
Reply: 100

* * *

Test system: HepG2
procedure-summary: GSK_TCMDC: Percent inhibition of human HepG2 cell line. Test compounds present at 10uM.
Type: functional
property-name: Inhibition
Write your answer as a measured quantity: the number, then the unit.

Task item: Consider the molecule shown here: CC(C)C[C@H](Nc1ccnc(NCC2CCCCC2)n1)C(=O)NCCc1ccccc1.O=C(O)C(F)(F)F What is its recorded Inhibition?
Reply: 10%

Task item: I am curious: what Inhibition value has been reported for CCOc1ccc2[nH]c(C)cc(=NN=Cc3ccccc3F)c2c1 ?
Reply: 0%

Task item: Looking for the measured Inhibition of COc1ccc(CN2CCCN(Cc3cccc(C(=O)Nc4ccc(C(C)(C)C)cc4)c3)CC2)cc1.O=C(O)C(F)(F)F , can you help?
Reply: 46%

Task item: Suppose we examine the molecule Cc1cc(-c2ccc(O)c(CNC3CCCCC3)c2)cnc1N ; what Inhibition value has been reported?
Reply: 27%

Task item: Recorded Inhibition of O=C(O)C(F)(F)F.OCC1CCCCN1Cc1cccc(-c2cccc(-c3nc4ccccc4[nH]3)c2)c1 (stereo not given) , please.
Reply: 24%

* * *

Test system: Plasmodium falciparum
procedure-summary: GSK_TCMDC: Inhibition of Plasmodium falciparum Dd2 in whole red blood cells, using parasite LDH activity as an index of growth. Test compounds present at 2uM
Assay type: functional
For each record, write down the corresponding Inhibition.
State the result as a value with its unit after it.

Task item: Sample Fc1ccc2c(NN=Cc3ccccc3F)ccnc2c1 — what was its Inhibition?
Reply: 99%

Task item: Recorded Inhibition of COc1cccc(C(O)CNc2ccnc(Nc3ccc(Cl)cc3)n2)c1 (stereo not given) , please.
Reply: 46%

Task item: Give the measured Inhibition of Oc1ccc2[nH]c(-c3cccc(F)c3)nc2c1CN1CCCC1 .
Reply: 47%

Task item: I am curious: what Inhibition value has been reported for O=C(O)C(F)(F)F.c1cc(-c2ccc(CNCCCn3ccnc3)cc2)cc(-c2nc3ccccc3[nH]2)c1 ?
Reply: 100%

Task item: Endpoint output: Inhibition of O=C(NCC1CCC(CNCCCc2ccccc2)CC1)Nc1ccc(Cl)c(Cl)c1 (stereo not given) . Value?
Reply: 2%

Task item: Inhibition lookup needed for Cc1cc(Cl)c(Cl)cc1NC(=O)Nc1cccc(C(F)(F)F)c1 , thanks.
Reply: 99%

Task item: Name the reported Inhibition value associated with the molecule O=C(c1ccc([N+](=O)[O-])o1)N1CCC(Cc2ccc(C(F)(F)F)cc2)CC1
Reply: 99%

Task item: // returns reported Inhibition for input O=C(NC1CCN(c2ccnc3cc(Cl)ccc23)C1)c1ccc(C(F)(F)F)cc1.O=C(O)C(F)(F)F (stereo not given)
Reply: 57%

Task item: Given COc1c(C2CCN(CCCCNC(=O)c3oc(-c4ccc(Cl)cc4)cc3CO)CC2)ccc2c1CCCC2 , state its recorded Inhibition.
Reply: 95%

Task item: Would you kindly share the measured Inhibition for O=C(O)C(F)(F)F.O=C(c1cccs1)N(Cc1cccc(-c2ccc(CNCCc3ccccc3)cc2)c1)C1CCN(Cc2ccccc2)CC1 ?
Reply: 76%

Task item: Field request: Inhibition | item: CS(=O)(=O)c1cc2c(Nc3ccc(N4CCOCC4)cc3)c(C(N)=O)cnc2cc1Br.Cl
Reply: 89%

Task item: Endpoint output: Inhibition of COc1cc2ncnc(Nc3ccc(OCc4ccccc4)c(C(F)(F)F)c3)c2cc1OC.Cl . Value?
Reply: 78%

Task item: Need Inhibition, item S=C(NCCN1CCOCC1)Nc1ccccc1
Reply: 1%

Task item: Query (molecule): O=C(Cc1ccc([N+](=O)[O-])cc1)N1CCc2cc3nccc(N4CCN5CCC[C@@H]5C4)c3cc21 ; field requested: Inhibition
Reply: 7%

Task item: Fill blank: measured Inhibition of the molecule CN1CCN(Cc2c(O)ccc3c(=O)c(Oc4ccc(C(C)(C)C)cc4)c(C(F)(F)F)oc23)CC1 is ____.
Reply: 88%

Task item: Would you mind telling me what Inhibition value was observed for Cc1ccc(C)c2sc(N(CCCn3ccnc3)C(=O)c3ccco3)nc12.Cl ?
Reply: 63%

Task item: Consider the molecule shown here: CC(C)CSc1cc(C(=O)Nc2cc(Cl)ccc2O)ccn1 What is its recorded Inhibition?
Reply: 34%

Task item: What value of Inhibition has been recorded for this entry: CS(=O)(=O)c1ccc2[nH]c(-c3cc(-c4cccc(F)c4)cnc3N)nc2c1.O=C(O)C(F)(F)F
Reply: 71%

Task item: Consider the molecule C=C[C@H]1CN(CCCCCCC)CC[C@H]1CCN(C)c1ccnc2ccc(OC)cc12.O=C(O)C(=O)O and give its measured Inhibition.
Reply: 93%

Task item: Endpoint output: Inhibition of Cc1cc(NC(=O)NCCN2CCC(NC(=O)c3ccc(Cl)cc3)CC2)c2ccccc2n1 . Value?
Reply: 54%

* * *

Please respond with reported Inhibition for every item in the list.
System: HepG2
procedure-summary: GSK_TCMDC: Percent inhibition of human HepG2 cell line. Test compounds present at 10uM.
Format: functional
Numeric only. Scale: %

Task item: What value of Inhibition has been reported for the following molecule? Cc1cc(N2CCCN(C)CC2)nc(Nc2ccc(Cl)cc2)n1
Reply: 8

Task item: Quick check: Inhibition of CC(=O)Nc1nc(C(=O)Nc2ccc(-c3cccc(-c4nc5ccccc5[nH]4)c3)cc2)cs1 ?
Reply: 68

Task item: Value lookup for Inhibition; key = Fc1ccc2[nH]c(-c3cccc(-c4ccc(CN5CCN(c6cnccn6)CC5)cc4)c3)nc2c1.O=C(O)C(F)(F)F
Reply: 19

Task item: Dear colleague, I am looking for the recorded Inhibition of the following molecule: CCNc1c2ccc(Cl)cc2nc2ccc(OC)cc12.Cl
Reply: 16

Task item: If you can, please state the reported Inhibition value of COc1cc2nc(NCCc3cccc(Cl)c3)nc(NCc3ccccc3)c2cc1OC .
Reply: 97

Task item: # get_value(readout='Inhibition', item= O=C(Nc1cccc(F)c1)c1ccc(C(=O)NC2CCN(CC3CCCCC3)C2)cc1.O=C(O)C(F)(F)F (configuration not stated) )
Reply: 16

Task item: Entry under review: CS(=O)(=O)Nc1cccc(-c2cnc3[nH]cc(-c4ccc(C(=O)O)cc4)c3c2)c1 . Reported Inhibition?
Reply: 0

Task item: Data request, read-out Inhibition, for CN(c1ccc(NC(=O)Nc2cc(C(C)(C)C)on2)cc1)c1ccnc(NCCN2CCOCC2)n1.O=C(O)C(F)(F)F
Reply: 51

Task item: Bench note: what Inhibition did COc1cc2c(cc1OC)CN(CCc1ccc(NC(=O)c3cc4cc(OC(F)(F)F)ccc4[nH]3)cc1)CC2 show?
Reply: 36

Task item: // lookup Inhibition for Cc1cc(NC(=O)Nc2ccc(Cl)cc2F)c2ccccc2n1
Reply: 10

Task item: Item Br.CCCc1cc(C)ccc1OCCCON1C(N)=NC(N)=NC1(C)C has what recorded Inhibition?
Reply: 64

Task item: Item under review: O=C(NCC1CCC(C(=O)NCc2cccc(C(F)(F)F)c2)CC1)c1ccc(O)c(-c2ccc(Cl)c(Cl)c2)c1 (configuration not stated) . Reported Inhibition?
Reply: 5
